Biological target: T1, SAS1B C-terminus extracellular domain (aa 160-431) (human, UniProt Q6HA08 160-431)
T1 construct: also called C-term extracellular domain
T1 sequence: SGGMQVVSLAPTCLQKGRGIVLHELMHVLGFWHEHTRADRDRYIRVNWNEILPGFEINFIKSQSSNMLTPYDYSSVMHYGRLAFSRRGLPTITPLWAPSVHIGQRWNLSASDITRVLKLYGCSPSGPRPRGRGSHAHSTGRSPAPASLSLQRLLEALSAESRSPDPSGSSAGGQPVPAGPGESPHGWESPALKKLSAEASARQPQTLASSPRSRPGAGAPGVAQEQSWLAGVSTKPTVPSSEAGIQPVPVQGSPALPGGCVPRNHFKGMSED
Experiment: western blot (FIG. 22)
Measurement Kind: binding result

// solved cases for binding result follow
anti-human SAS1B murine monoclonal antibody SB4 (antibody, IgG2a, V domains shown, Mouse hybridoma antibody, isotype IgG2a-k; also called SB4 mAb) VH: EVQLQQSGPELVKPGSSVKISCKPSGYTFTDYNMVWMKQSHGKSLEWIGAINPNNGGTTYNQKFKGKATLTVDKSSSTAYMELRSLTSEDSAVYYCAPNWDWFAYWGQGTLVTVSA VL: DVLMTQTPLSLPVSLGDQASISCRSSQSILHSNGNTYLEWYLQKPGQSPKLLIYKVSNRFSGVPDRFSGSGSGTDFTLKISRVEAEDLGVYYCFQGSHVPFTFGSGTKLEIK
no binding
anti-human SAS1B murine monoclonal antibody SB3 (antibody, IgG2b, V domains shown, also called SB3 mAb) VH: EVQLQQSGPELVKPGSSVKISCKASGYTFTDYNMVWVKQSHGKSLEWIGAVNPNNGGTSYNQKFKGKATLTVDKSSSTAYMELRSLTSEDSAVYYCVPNWDWFAYWGQGTLVTVSA VL: DVLMTQTPLSLPVSLGDQASISCRSSQSLVHSNGNTYLEWYLQKPGQSPNLLIYKVSNRFSGVPDRFSGSGSGTDFTLKISRVEAEDLGVYYCFQGSHVPFTFGSGTKLEIK
no binding
anti-human SAS1B murine monoclonal antibody SB1 (antibody, IgG2a, V domains shown, also called SB1 mAb) VH: EVQLQQSGPELVKPGSSVKISCKASGYTFTDYNMDWVKQSHGKSLEWIGAINPNNGGTSYNQKFKGKATLTVDKSSSTAYMELRSLTSEDSAVYYCATNEYWGQGTTLTVSS VL: NIVMTQSPKSMSMSVGERVTLSCKASENVGTYVSWYQQKPEQSPKLLIYGASNRYTGVPDRFTGSGSATDFTLTISSVQAEDLADYHCGQSYSYPWTFGGGTKLEIK
no binding
anti-human SAS1B murine monoclonal antibody SB7 (antibody, IgG2b, V domains shown) VH: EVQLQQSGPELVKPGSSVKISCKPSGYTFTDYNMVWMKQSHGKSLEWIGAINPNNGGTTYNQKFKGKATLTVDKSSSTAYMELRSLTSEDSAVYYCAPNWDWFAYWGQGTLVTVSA VL: DVLMTQIPLSLPVSLGDQASISCRSSQSILHSNGNTYLEWYLQKPGQSPKLLIYKVSNRFSGVPDRFSGSGSGTDFTLKISRVEAEDLGVYYCFQGSHVPFTFGSGTKLEIK
no binding
anti-human SAS1B murine monoclonal antibody SB2 (antibody, IgG2b, V domains shown, also called SB2 mAb) VH: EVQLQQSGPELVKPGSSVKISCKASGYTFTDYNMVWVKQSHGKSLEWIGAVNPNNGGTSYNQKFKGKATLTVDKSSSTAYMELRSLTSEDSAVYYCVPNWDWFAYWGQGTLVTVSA VL: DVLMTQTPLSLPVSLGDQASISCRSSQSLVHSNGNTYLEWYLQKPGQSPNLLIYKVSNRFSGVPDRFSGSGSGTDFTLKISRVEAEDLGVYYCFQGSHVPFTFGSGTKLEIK
no binding
anti-human SAS1B murine monoclonal antibody SB6 (antibody, IgG2b, V domains shown) VH: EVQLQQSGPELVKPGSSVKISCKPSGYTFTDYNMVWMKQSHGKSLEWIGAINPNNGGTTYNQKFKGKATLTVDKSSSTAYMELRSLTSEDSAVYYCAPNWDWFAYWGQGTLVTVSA VL: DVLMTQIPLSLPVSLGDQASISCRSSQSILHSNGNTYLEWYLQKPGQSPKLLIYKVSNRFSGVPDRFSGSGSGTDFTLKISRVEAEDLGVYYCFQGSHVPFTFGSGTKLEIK
no binding

Consider the additional binder presented here.
Data request: Fill in: binding result of anti-human SAS1B murine monoclonal antibody SB5 (antibody, IgG2b, V domains shown, Mouse hybridoma antibody, isotype IgG2b-k; also called SB5 mAb) VH: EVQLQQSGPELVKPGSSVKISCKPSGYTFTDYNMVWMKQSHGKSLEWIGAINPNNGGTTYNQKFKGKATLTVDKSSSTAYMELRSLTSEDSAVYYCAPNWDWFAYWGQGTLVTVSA VL: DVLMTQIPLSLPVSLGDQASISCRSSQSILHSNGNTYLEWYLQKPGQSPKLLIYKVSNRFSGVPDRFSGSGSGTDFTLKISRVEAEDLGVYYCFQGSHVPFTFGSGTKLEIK is ___
Data returned: no binding

Data credit: patent US20190194345A1
